Tested on: U-2 OS
Assay: relative cell count vs DMSO (cell painting) (fraction of DMSO control); higher = more cells remaining (less cytotoxic)
Conditions: 1.25 µM; 24 h
Returns Y if the recorded relative cell count is greater than or equal to 1, and N otherwise.

Completed entries (count: 10):
{"columns": ["molecule", "answer_label"],
 "data": [
  ["NC1CS(=O)(=O)c2ccccc21 (stereo not given)", "Y"],
  ["O=C1CC(Sc2nnnn2-c2ccccc2)C(=O)N1c1ccc([N+](=O)[O-])cc1 (stereo not given)", "Y"],
  ["CC1OC2=C(C(=O)C(=O)c3ccccc32)C1(C)C (stereo not given)", "N"],
  ["COc1ccc2cc1Oc1ccc(cc1)C[C@H]1c3cc(c(OC)cc3CCN1C)Oc1c(OC)c(OC)cc3c1[C@H](C2)N(C)CC3", "Y"],
  ["c1ccc(Nc2nc(-c3ccccc3)ns2)cc1", "N"],
  ["COC1=C2C[C@@H](C)C[C@H](OC)[C@H](O)[C@@H](C)/C=C(\\C)[C@H](OC(N)=O)[C@@H](OC)/C=C\\C=C(/C)C(=O)NC(=CC1=O)C2=O", "N"],
  ["C[C@@]12C(=O)OC(=O)[C@]1(C)[C@H]1CC[C@@H]2O1", "N"],
  ["NC(=O)c1ccc(I)c([N+](=O)[O-])c1", "Y"],
  ["CN(C)C/C=C/C(=O)Nc1ccc(C(=O)Nc2cccc(Nc3ncc(Cl)c(-c4c[nH]c5ccccc45)n3)c2)cc1", "N"],
  ["CC1=CC(=O)c2ccccc2C1=O", "N"]
]}

Q) Textbook exercise: given the entry Oc1ccc2ccccc2c1SSc1c(O)ccc2ccccc12 , state whether its relative cell count is greater than or equal to 1.
A) N

Q) Threshold query (relative cell count >= 1) on COC1=CC=C(S(=O)(O/N=C2C=C(C(C(C)=C\2)=O)C)=O)C=C1
A) N

Q) # check: relative cell count of O=C1CC(Nc2ccccc2)C(=O)N1Cc1ccccc1 (stereo not given) is greater than or equal to 1
A) Y
